System: OVCAR-8 ovarian
run_description: NCI-60 one-dose screen, 48 h
measurement_setup: 10 µM unless noted
Experimental: Growth inhibition of the OVCAR-8 human tumor cell line is measured as a screen for anti-cancer activity. Cells are grown in 96 well plates and exposed to the test compound for 48 hours. Compounds are tested at a single concentration, which is 10^-5 M for most compounds. The reported endpoint is percent growth (GI% or GIPRCNT), where numbers from 0 - 100% represent growth inhibition, and numbers from -100% - 0 represent cell death. For example, a value of 40 represents 60% growth inhibition. […]
About 83,000 compounds went through this panel and 20% of them were active in at least one assay; those are over-represented in the sample as a whole. Active and inactive are the calls of the source. How the source made its calls: active means growth percent below 10; inactive means the rest.
Classes used: 1 (yes) (active), 0 (no) (inactive)

molecule="CC(C)[N+](C)(C)CC(O)COc1cccc2ccccc12 (stereo not given)" qualitative_label="0 (no)"
molecule=CC(C)OC(=O)Nc1cc(F)c(F)cc1F qualitative_label="0 (no)"
molecule="CCOC(=O)c1nn(C2CCCCO2)c2ccc(NS(=O)(=O)c3ccc(C)cc3)cc12 (stereo not given)" qualitative_label="0 (no)"
molecule=Cn1cc(-c2nnc(-c3cn(C)c4ncc(Br)cc34)o2)c2ccccc21 qualitative_label="0 (no)"
molecule=CCc1ccc(C2=C/C(=C/c3ccccc3)C(=O)N2CCc2ccc(S(N)(=O)=O)cc2)cc1 qualitative_label="0 (no)"
molecule="O=C1CC(c2ccccc2)Cc2nc3ccc(Br)cc3cc21 (stereo not given)" qualitative_label="0 (no)"
molecule="CCCn1ccnc1C(O)c1ccc(OCc2ccccc2)c(OC)c1 (stereo not given)" qualitative_label="0 (no)"
molecule=CCCCNC(=O)NS(=O)(=O)Cc1ccccc1 qualitative_label="0 (no)"
molecule=CCN(CC)c1ccc(/C=C/C=C2\NC(=O)NC2=O)cc1 qualitative_label="0 (no)"
molecule=Cc1cccc(C[C@H](NC(=O)Nc2ccc(Cl)cc2F)C(=O)N[C@@H]2C(=O)N3C[C@H](O)C[C@H]3C(=O)N3CCCC[C@H]3C(=O)N[C@@H](C)C(=O)N3C[C@H](C)C[C@H]3C(=O)O[C@H]2C)c1 qualitative_label="0 (no)"
molecule="CC1Cc2c(Cl)ncnc2N(C)c2ccccc21 (stereo not given)" qualitative_label="0 (no)"
molecule=COc1cc(-c2nc(SCCC(C)C)nc(Nc3ccc(S(N)(=O)=O)cc3)c2C#N)cc(OC)c1OC qualitative_label="0 (no)"
molecule=CN(C)c1ccc(N=Nc2ccc3ccccc3c2)cc1 qualitative_label="0 (no)"
molecule=Cc1ccc(S(=O)(=O)Nc2ccccc2)cc1N qualitative_label="0 (no)"
molecule=CCn1cc(-c2ccnc(NCCNS(=O)(=O)c3cccc4ccccc34)c2)c(-c2cccc(O)c2)n1 qualitative_label="0 (no)"
molecule="CCCCCCCCCN(CCCCCCCCC)C(C)C(=O)c1ccc2cc(Br)c3ccccc3c2c1 (stereo not given)" qualitative_label="0 (no)"
molecule=CC(C)=CC/C=C(/C)[C@H]1CC[C@]2(C)[C@@H]1CC[C@@H]1[C@@]3(C)CC/C(=N/O)C(C)(C)[C@@H]3CC[C@]12C qualitative_label="0 (no)"
molecule=Cn1cc(-c2noc(C(=O)c3cn(C)c4ncc(Br)cc34)n2)c2ccccc21 qualitative_label="0 (no)"
molecule=CCCCOC(=O)c1c(C)[nH]c(/C=C2\N=C(c3ccc[nH]3)C=C2OC)c1C qualitative_label="1 (yes)"
molecule=O=C(Nc1ccc(Nc2ccncc2)cc1)c1ccc([N+](=O)[O-])cc1 qualitative_label="0 (no)"

----------
Test system: HT29 colon
run_description: NCI-60 one-dose screen, 48 h
measurement_setup: 10 µM unless noted
This is part of a sample that, as a whole, favours compounds with a hit. Of some 83,000 tested, about 20% had one in any assay. Active and inactive are the calls of the source. Rule for the calls: active = growth percent below 10; inactive = the rest.
Classes used: active, inactive

compound=O=C(Nc1cccnc1)c1ccc2ccc3ccc(C(=O)Nc4cccnc4)nc3c2n1 tested_on="HT29 colon" qualitative_label=active
compound=CC(C)(C)c1cc(C(=O)Nc2ccc(C(=O)NCCN)cc2)cc(C(C)(C)C)c1 tested_on="HT29 colon" qualitative_label=active
compound=O=C(Nc1cccc2ccccc12)c1cc2ccccc2cc1O tested_on="HT29 colon" qualitative_label=inactive
compound="CCN(CC)CC(C)Nc1ccc(C)c2sc3ccccc3c(=O)c12 (centres undefined)" tested_on="HT29 colon" qualitative_label=inactive
compound=CCOC(CNC(=O)c1cccc([N+](=O)[O-])c1)OCC tested_on="HT29 colon" qualitative_label=inactive
compound=CC(=O)OC[C@]12CC[C@@H](C(=O)CBr)[C@@H]1[C@H]1CC[C@@H]3[C@@]4(C)CCCNC(C)(C)[C@@H]4CC[C@@]3(C)[C@]1(C)CC2 tested_on="HT29 colon" qualitative_label=active
compound="CCN(CC)CCSC(=O)C(O)(c1ccccc1)C1CCCC1 (centres undefined)" tested_on="HT29 colon" qualitative_label=inactive
compound=COc1cc(C(=O)/C=C/c2c(-c3ccc(F)cc3)nc3sccn23)cc(OC)c1OC tested_on="HT29 colon" qualitative_label=active
compound=O=C(CCNCc1ccccc1)c1ccccc1 tested_on="HT29 colon" qualitative_label=inactive
compound=CC1(C)CC(=O)c2c(ccc(C(=O)C[C@@H](N)CO)c2N)O1 tested_on="HT29 colon" qualitative_label=active
compound=O=C(O)c1cc([N+](=O)[O-])ccc1Br tested_on="HT29 colon" qualitative_label=inactive
compound=C=C(CN=[N+]=[N-])[C@@H]1CC[C@]2(C)[C@H](CC[C@@H]3[C@H]4[C@H]5OC(=O)[C@@]4(CCC5(C)C)CC[C@]32C)[C@@]1(C)CCC#N tested_on="HT29 colon" qualitative_label=inactive
compound=C#C[C@]1(O)CC[C@H]2[C@@H]3CC=C4c5nc(Nc6ncccn6)sc5CC[C@]4(C)[C@H]3CC[C@@]21C tested_on="HT29 colon" qualitative_label=inactive
compound=CCCCCCCCCCCCCCCCCCNC(=S)N/N=C/c1ccc(OC)c(OC)c1 tested_on="HT29 colon" qualitative_label=inactive
compound="Fc1cc2[nH]ncc2c2c3c(c(-c4cn[nH]c4C(F)(F)F)nc12)C1CCC3C1 (centres undefined)" tested_on="HT29 colon" qualitative_label=inactive
compound=CC(C)=CCC[C@](C)(O)[C@H]1CC[C@]2(C)[C@@H]1CC[C@@H]1[C@@]3(C)CC/C(=N/O)C(C)(C)[C@@H]3CC[C@]12C tested_on="HT29 colon" qualitative_label=active
compound=O=C(Nc1cc(-c2cccnc2)nc(NCCCN2CCOCC2)n1)c1cc(Br)cc(C(F)(F)F)c1 tested_on="HT29 colon" qualitative_label=active
compound="CCCC(NC(=O)OCc1ccccc1)C(=O)O (centres undefined)" tested_on="HT29 colon" qualitative_label=inactive
compound=NC(=O)c1cccc(-c2ccc(S(=O)(=O)Nc3ccc4c(c3)N(C(=O)C3CC3)CCC4)cc2)c1 tested_on="HT29 colon" qualitative_label=inactive

----------
Test system: UO-31 renal
run_description: NCI-60 one-dose screen, 48 h
measurement_setup: 10 µM unless noted
About 83,000 compounds went through this panel and 20% of them were active in at least one assay; those are over-represented in the sample as a whole. The source made the active and inactive calls. How the source made its calls: active means growth percent below 10; inactive means the rest.
Classes used: True (active), False (inactive)

compound=CC1(C)CC[C@]2(C(=O)O)CC[C@]3(C)C(=CC[C@@H]4[C@@]5(C)C/C(=C/c6cccnc6)[C@H](O)C(C)(C)[C@@H]5CC[C@]43C)[C@@H]2C1 qualitative_label=True
compound=Cc1cccc(/C=C2\N=C(c3ccccc3)N(c3ccc(S(N)(=O)=O)cc3)C2=O)c1 qualitative_label=False
compound=COc1ccc(-c2cc(-c3ccc(Cl)cc3)nc(SCCCCCCC(=O)NO)n2)cc1 qualitative_label=False
compound=O=C(O)c1ccccc1C(F)(F)F qualitative_label=False
compound=Cc1ccc(S(=O)(=O)Oc2ccc([N+](=O)[O-])cc2[N+](=O)[O-])cc1 qualitative_label=False
compound=CCCCCCCCCCCCCCCCCCNC(=S)N/N=C/c1ccc(OC)c(OC)c1 qualitative_label=False
compound=Cc1ccc(NC(=O)N[C@@H](Cc2cc(F)cc(F)c2)C(=O)N[C@@H]2C(=O)N3CCC[C@H]3C(=O)N3CCCC[C@H]3C(=O)N[C@@H](C)C(=O)N3C[C@H](C)C[C@H]3C(=O)O[C@H]2C)cc1 qualitative_label=False
compound=COc1ccc2c(c1)c(-c1noc(-c3cn(C)c4ncc(F)cc34)n1)cn2C qualitative_label=False
compound=CC(C)C1=NOC(=O)C1=Cc1cn(-c2ccccc2)nc1-c1ccc(Br)cc1 qualitative_label=False
compound="C#CCOc1ccc(C2=NN(CC3CC3)C3N=C(Cl)c4ncn(CC5CC5)c4N23)cc1OCC#C (stereo unspecified)" qualitative_label=False
compound=C[N+](C)(C)c1ncnc2[n-]cnc12 qualitative_label=False
compound=CC1(C)CC[C@]2(C(=O)OC(=O)[C@]34CCC(C)(C)C[C@@H]3C3=CC[C@@H]5[C@@]6(C)CCC(=O)C(C)(C)[C@@H]6CC[C@@]5(C)[C@]3(C)CC4)CC[C@]3(C)C(=CC[C@@H]4[C@@]5(C)CCC(=O)C(C)(C)[C@@H]5CC[C@]43C)[C@H]2C1 qualitative_label=False
compound=CSc1nc(N)c(N=Nc2ccc(S(=O)(=O)Nc3nnc(C)s3)cc2)c(=O)[nH]1 qualitative_label=False
compound=CN(C)CCCNc1nc(-c2cccc(C(Cl)(Cl)Cl)c2)nc(C(Cl)(Cl)Cl)n1 qualitative_label=False
compound=Cc1cccc(C[C@H](NC(=O)Nc2ccc(Cl)cc2F)C(=O)N[C@@H]2C(=O)N3C[C@H](O)C[C@H]3C(=O)N3CCN(C)C[C@H]3C(=O)N[C@@H](C)C(=O)N3C[C@H](C)C[C@H]3C(=O)O[C@H]2C)c1 qualitative_label=False
compound="CC/C=C(\\C)C(CCC)(CN=O)C(=O)OCC (stereo unspecified)" qualitative_label=False

Measured values drawn from PubChem BioAssay (NCI) for this set.
